Where do the numbers come from? From the supplement of paper PMC6757056.

Provide the recorded normalized RNA/DNA level without ligand (log10) for the entries that follow.
B1: library; a variant is named by its letters at N, in order (parent)
chain: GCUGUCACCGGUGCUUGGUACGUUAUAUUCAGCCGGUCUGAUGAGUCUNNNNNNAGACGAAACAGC

- Variants of: B1
- EXPERIMENT_NOTES: normalized RNA/DNA level without ligand (relative to sTRSVctl = 100) (log10 (% of sTRSVctl)); HEK293T overexpressing SLC46A1; higher = less ribozyme self-cleavage, higher mRNA level
- CONDITION_PARAMETERS: without (6R,S)-folinic acid; ligand present: no

# annotated cases, reported normalized RNA/DNA level without ligand (log10) shown
Ask: Report normalized RNA/DNA level without ligand (log10) for GCUGUCACCGGUGCUUGGUACGUUAUAUUCAGCCGGUCUGAUGAGUCUACUCACAGACGAAACAGC [ACUCAC]
Result: 2.06

Ask: Supply reported normalized RNA/DNA level without ligand (log10) belonging to this variant: GCUGUCACCGGUGCUUGGUACGUUAUAUUCAGCCGGUCUGAUGAGUCUAAUACCAGACGAAACAGC [AAUACC]
Result: 2.03

Ask: Please list normalized RNA/DNA level without ligand (log10) recorded for the variant GCUGUCACCGGUGCUUGGUACGUUAUAUUCAGCCGGUCUGAUGAGUCUUCCGCUAGACGAAACAGC [UCCGCU]
Result: 2.07

// for each variant in input: emit normalized RNA/DNA level without ligand (log10)
1. GCUGUCACCGGUGCUUGGUACGUUAUAUUCAGCCGGUCUGAUGAGUCUAGACCUAGACGAAACAGC [AGACCU]
2. GCUGUCACCGGUGCUUGGUACGUUAUAUUCAGCCGGUCUGAUGAGUCUGAACGUAGACGAAACAGC [GAACGU]
3. GCUGUCACCGGUGCUUGGUACGUUAUAUUCAGCCGGUCUGAUGAGUCUAGUAGAAGACGAAACAGC [AGUAGA]

Result:
1: 2.02; 2: 1.99; 3: 1.94
